Data credit: PubChem BioAssay (NCI)

# Tested on: SF-539 CNS
# assay name: NCI-60 one-dose screen, 48 h (100 = growth as untreated, 0 = no growth, -100 = all killed)
# condition label: 10 µM unless noted
Compounds without any hit were thinned out: in the full panel of roughly 83,000, 20% have a hit.
property label: growth (%)
Dear colleague, please return just the value in %, with no unit written.

-- ask growth lookup needed for `C/C(=C(/c1ccc(O)cc1)c1ccc(OCCN2CCCC2)cc1)c1ccc(Cl)cc1` , thanks.
-- reply 0.146

-- ask Next: `O=C1c2cc(Br)ccc2-n2c1nc1cc(Br)ccc1c2=O`
-- reply 92.4

-- ask Also, `Cc1nn(-c2ccc(Br)cc2)c2nc(CCl)[nH]c(=O)c12` please.
-- reply 77

-- ask Entry `N=c1c2cc(-c3ccccc3)oc2ncn1/N=C/c1ccccc1` please
-- reply 85.8

-- ask What do you have for `O=C1c2c(O)cc(O)cc2O[C@@H](c2ccc(O)cc2)[C@@H]1c1c(O)cc(O)c2c(=O)cc(-c3ccc(O)c(O)c3)oc12` ?
-- reply 95.8

-- ask Thanks! And `N#C/C(=C\c1ccc(N2CCCCC2)cc1)C(=O)Nc1sc2c(c1C#N)CCC2` ?
-- reply 89.6

-- ask What about `COCCOc1ccc(-c2csc(NC(=O)CN3CCN(CCO)CC3)n2)cc1NS(=O)(=O)c1cccc2c(N(C)C)cccc12` ?
-- reply 61.9

-- ask What do you get for Cc1ccc(C2CC(c3ccc(Nc4nc(NCCO)nc(Nc5ccc(Cl)cc5)n4)cc3)=Nc3c(N)nc(N)nc3N2)cc1 (stereo not drawn) ?
-- reply -20.3

-- ask Could you do the same for `O=C(NNc1nc2cc(F)cc(F)c2n2cccc12)c1ccncn1` , please?
-- reply 7.47

-- ask And then `COc1cc(O)c2c(c1)[C@H]1O[C@@H]1C[C@H](O)[C@H](O)C(=O)/C=C\C[C@H](C)OC2=O` , what is it?
-- reply 61.7

-- ask What about this compound? `O=C(Nc1cccc(Cl)c1)Nc1nc2ccc(-c3cccc4ccccc34)cc2s1`
-- reply 87

-- ask Follow-up item: `COc1ccc(/C(C)=C(\c2ccc(Cl)cc2)c2ccc(OCCN)cc2)cc1`
-- reply 90

-- ask Also need `CC(C)C[C@H]1C(=O)O[C@H](C(C)C)C(=O)N(C)[C@@H](C(C)C)C(=O)O[C@H](C(C)C)C(=O)N(C)[C@@H](C(C)C)C(=O)O[C@H](C(C)C)C(=O)N1C` , thanks.
-- reply 22.3

-- ask // repeat for `C#CCOc1ccc(/C=N/Nc2nc(-c3cc(Cl)ccc3Cl)cs2)cc1` and report
-- reply 102

-- ask And `CCn1c2ccc(/C=N/OCCCN(C)C)cc2c2cc(/C=N/OCCCN(C)C)ccc21` ?
-- reply -80.4

-- ask Let us now turn to `Cc1cc(-c2ccc3nc(N)sc3c2)nc2ccc3[nH]ncc3c12`
-- reply 20.9

-- ask Another compound: `C=CCn1c(SCC(=O)Nc2cccc(C(=O)/C=C/c3ccccc3)c2)nc2ccccc2c1=O`
-- reply 77.1

-- ask How about this compound: `COc1ccc(-c2ccnc3c(C#N)c(Nc4ccccc4)nn23)cc1OC`
-- reply 78.8

-- ask Same question, `CCc1ccc(NC(=O)N[C@@H](Cc2cc(F)cc(F)c2)C(=O)N[C@@H]2C(=O)N3CCC[C@H]3C(=O)N3CCO[C@H](C)[C@H]3C(=O)N[C@@H](CO)C(=O)N3C[C@H](C)C[C@H]3C(=O)O[C@H]2C)c(F)c1` this time
-- reply 39.9

-- ask Now try `Cc1cc(C(=O)Nc2ccc(SC#N)cc2)c(C)o1` .
-- reply 98.8

-- ask Moving on to the next compound: `O=C(Nc1cc(Cl)cc(Cl)c1)Nc1ccc2oc(=O)ccc2c1`
-- reply 22.5

-- ask Another: `Cc1cc(F)cc(NS(=O)(=O)c2ccc(-c3cnc(C4CC4)o3)cc2)c1`
-- reply -1.6

-- ask Continue with `O=C1c2c(c3c4cc(Br)ccc4[nH]c3c3ccc4ccccc4c23)C(=O)N1CCN1CCCCC1`
-- reply 38.7
